Exercise: for every item that follows, state its recorded inhibition.
target.or.test.system: MAP3K9 (human)
assay.remarks: ELISA
conditions.used: compound 0.02 µM
Numbers only, in %.

Take a look at these entries with their results.
So for CNC(=O)c1cc(Oc2ccc(NC(=O)Nc3ccc(Cl)c(C(F)(F)F)c3)cc2)ccn1 , the logged inhibition turned out to be 8.6

So for CNC(=O)c1ccccc1Sc1ccc2c(/C=C/c3ccccn3)n[nH]c2c1 , the logged inhibition turned out to be 0.1

So for COc1cc2c(Oc3ccc4[nH]c(C)cc4c3F)ncnc2cc1OCCCN1CCCC1 , the logged inhibition turned out to be 4.9

Please turn your attention to the following entry.
So for Cc1ccc(Nc2nccc(N(C)c3ccc4c(C)n(C)nc4c3)n2)cc1S(N)(=O)=O , the logged inhibition turned out to be 28.1

###

target.or.test.system: RPS6KA3 KD1 KD2 (human) (UniProt P51812)
Sequence (P51812 whole entry, looked up): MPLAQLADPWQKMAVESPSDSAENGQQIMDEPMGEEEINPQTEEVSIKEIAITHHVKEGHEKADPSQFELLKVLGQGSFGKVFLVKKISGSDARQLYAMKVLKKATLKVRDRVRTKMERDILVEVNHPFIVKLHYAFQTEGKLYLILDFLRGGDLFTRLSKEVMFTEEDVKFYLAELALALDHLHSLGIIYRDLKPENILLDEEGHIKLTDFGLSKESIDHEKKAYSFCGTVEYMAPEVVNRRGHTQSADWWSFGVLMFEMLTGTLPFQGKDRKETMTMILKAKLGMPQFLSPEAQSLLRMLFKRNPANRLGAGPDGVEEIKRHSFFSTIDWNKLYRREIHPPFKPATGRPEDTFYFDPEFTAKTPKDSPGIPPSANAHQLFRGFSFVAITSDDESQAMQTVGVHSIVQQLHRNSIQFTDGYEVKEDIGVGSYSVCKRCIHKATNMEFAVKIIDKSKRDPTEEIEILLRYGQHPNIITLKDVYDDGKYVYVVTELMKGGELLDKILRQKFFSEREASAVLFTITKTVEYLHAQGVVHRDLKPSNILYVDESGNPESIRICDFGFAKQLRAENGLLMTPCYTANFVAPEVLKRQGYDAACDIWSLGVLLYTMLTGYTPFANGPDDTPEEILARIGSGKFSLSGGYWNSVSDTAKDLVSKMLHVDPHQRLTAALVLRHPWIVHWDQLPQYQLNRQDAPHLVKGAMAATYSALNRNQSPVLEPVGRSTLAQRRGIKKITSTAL
assay.remarks: Caliper, Mobility shift assay off-chip
conditions.used: compound 0.2 µM
readout.label: inhibition
Give your result as the value with the unit written after it.

Take a look at these entries with their results.
So for CCN(CC)CCNC(=O)c1c(C)[nH]c(/C=C2\C(=O)Nc3ccc(F)cc32)c1C , the logged inhibition turned out to be 61.7%

So for Cc1ccc(Nc2nccc(N(C)c3ccc4c(C)n(C)nc4c3)n2)cc1S(N)(=O)=O , the logged inhibition turned out to be 3.1%

So for COc1cc2c(Oc3ccc4[nH]c(C)cc4c3F)ncnc2cc1OCCCN1CCCC1 , the logged inhibition turned out to be -1.8%

Please turn your attention to the following entry.
So for CNC(=O)c1cc(Oc2ccc(NC(=O)Nc3ccc(Cl)c(C(F)(F)F)c3)cc2)ccn1 , the logged inhibition turned out to be -5.9%

###

target.or.test.system: SGK2 (human) (UniProt Q9HBY8)
Sequence (Q9HBY8 whole entry, looked up): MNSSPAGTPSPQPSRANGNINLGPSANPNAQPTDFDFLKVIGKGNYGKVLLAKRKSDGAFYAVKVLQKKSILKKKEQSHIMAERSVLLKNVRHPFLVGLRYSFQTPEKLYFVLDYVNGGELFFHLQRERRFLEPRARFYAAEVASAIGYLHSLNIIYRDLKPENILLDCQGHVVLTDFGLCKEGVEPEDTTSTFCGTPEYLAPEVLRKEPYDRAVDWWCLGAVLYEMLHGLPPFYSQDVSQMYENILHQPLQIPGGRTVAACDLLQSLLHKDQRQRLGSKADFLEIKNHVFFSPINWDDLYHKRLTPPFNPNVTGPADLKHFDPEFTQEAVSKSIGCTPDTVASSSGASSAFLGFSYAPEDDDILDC
assay.remarks: Caliper, Mobility shift assay off-chip
conditions.used: compound 0.2 µM
readout.label: inhibition (%)
Numbers only, in %.

So for CCN(CC)CCNC(=O)c1c(C)[nH]c(/C=C2\C(=O)Nc3ccc(F)cc32)c1C , the logged inhibition turned out to be 5.5

So for CNC(=O)c1cc(Oc2ccc(NC(=O)Nc3ccc(Cl)c(C(F)(F)F)c3)cc2)ccn1 , the logged inhibition turned out to be 8.4

So for COc1cc2c(Oc3ccc4[nH]c(C)cc4c3F)ncnc2cc1OCCCN1CCCC1 , the logged inhibition turned out to be 3.9

Please turn your attention to the following entry.
So for Cc1ccc(Nc2nccc(N(C)c3ccc4c(C)n(C)nc4c3)n2)cc1S(N)(=O)=O , the logged inhibition turned out to be -0.1

###

target.or.test.system: CLK3 (human)
assay.remarks: Caliper, Mobility shift assay off-chip
conditions.used: compound 0.02 µM
Exercise: for every item that follows, state its recorded inhibition.
One number for each entry, in %.

Take a look at these entries with their results.
So for Cc1ccc(Nc2nccc(N(C)c3ccc4c(C)n(C)nc4c3)n2)cc1S(N)(=O)=O , the logged inhibition turned out to be -3.9

So for CNC(=O)c1ccccc1Sc1ccc2c(/C=C/c3ccccn3)n[nH]c2c1 , the logged inhibition turned out to be -5.1

So for CNC(=O)c1cc(Oc2ccc(NC(=O)Nc3ccc(Cl)c(C(F)(F)F)c3)cc2)ccn1 , the logged inhibition turned out to be -7.5

More entries:
So for COc1cc2c(Oc3ccc4[nH]c(C)cc4c3F)ncnc2cc1OCCCN1CCCC1 , the logged inhibition turned out to be 11.9
